The values you see were collected from patent US12071411B2.

# measurement-target: UniProt Q99814
# assay-name: HIF-2α Luciferase Reporter Assay (serum free) in HIF-Luc-786-0 cells
# Assay type: cell-based
# settings: Opti-MEM, 786-0 reporter cells, 20 hours incubation
pIC50: −log10 of the molar value.
Reported pIC50 is given for each of the following molecules.

Example results:
[
  {
    "molecule": "O[C@H]1c2c(C(F)(F)F)nn(CCCC(F)(F)F)c2CCC1(F)F [Example 41]",
    "measurement-target": "UniProt Q99814",
    "pIC50": "> 7.00"
  },
  {
    "molecule": "O[C@H]1c2c(C(F)(F)F)nn([C@H]3CC[C@H](F)[C@H](F)C3)c2[C@@H](F)C1(F)F [Example 157]",
    "measurement-target": "UniProt Q99814",
    "pIC50": "> 7.00"
  }
]

Q: Name the recorded pIC50 for O[C@H]1c2c(C(F)(F)F)nn([C@H]3CC[C@H](F)CC3)c2CC1(F)F [Example 96] .
Ans: > 7.00

Q: Name the recorded pIC50 for CO[C@H](CCn1nc(S(C)(=O)=O)c2c1CC(F)(F)[C@H]2O)C(F)(F)F (racemic) [Example 107] .
Ans: > 7.00

###

# measurement-target: HIF-2α (Homo sapiens, UniProt Q99814)
# Sequence (Q99814 whole entry): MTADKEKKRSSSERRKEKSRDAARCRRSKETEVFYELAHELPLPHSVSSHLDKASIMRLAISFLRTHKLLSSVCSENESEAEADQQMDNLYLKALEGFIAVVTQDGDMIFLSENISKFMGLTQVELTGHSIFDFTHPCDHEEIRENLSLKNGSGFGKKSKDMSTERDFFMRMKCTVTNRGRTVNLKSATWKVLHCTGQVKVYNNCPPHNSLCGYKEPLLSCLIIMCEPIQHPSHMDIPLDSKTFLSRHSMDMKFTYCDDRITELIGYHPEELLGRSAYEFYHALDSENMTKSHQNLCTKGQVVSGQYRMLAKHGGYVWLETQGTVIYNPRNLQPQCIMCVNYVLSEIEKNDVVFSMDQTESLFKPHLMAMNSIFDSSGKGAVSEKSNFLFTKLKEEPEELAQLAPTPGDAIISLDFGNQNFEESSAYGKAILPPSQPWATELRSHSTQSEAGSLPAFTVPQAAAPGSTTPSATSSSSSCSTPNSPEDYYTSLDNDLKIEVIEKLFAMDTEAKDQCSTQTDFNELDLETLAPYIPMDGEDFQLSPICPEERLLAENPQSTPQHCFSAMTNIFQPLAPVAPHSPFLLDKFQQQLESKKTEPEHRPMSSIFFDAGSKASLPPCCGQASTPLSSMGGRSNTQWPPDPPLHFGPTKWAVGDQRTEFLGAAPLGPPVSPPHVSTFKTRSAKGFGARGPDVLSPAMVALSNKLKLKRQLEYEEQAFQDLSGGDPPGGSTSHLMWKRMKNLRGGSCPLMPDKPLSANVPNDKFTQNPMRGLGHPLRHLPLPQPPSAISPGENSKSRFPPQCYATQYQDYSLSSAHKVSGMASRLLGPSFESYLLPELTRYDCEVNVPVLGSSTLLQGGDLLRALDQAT
# assay-name: HIF-2α Luciferase Reporter Assay (serum free) in HIF-Luc-786-0 cells
# Assay type: cell-based
# settings: Opti-MEM, 786-0 reporter cells, 20 hours incubation
value-type: IC50

Example results:
[
  {
    "compound": "O[C@H]1c2c(C(F)(F)F)nn(CCc3ccsc3)c2CC1(F)F [Example 76]",
    "measurement-target": "HIF-2α (Homo sapiens, UniProt Q99814)",
    "IC50": "0.1 to 1 µM"
  },
  {
    "compound": "O[C@H]1c2c(C(F)(F)F)nn([C@H]3C[C@H](COC(F)F)C3)c2CC1(F)F [Example 102]",
    "measurement-target": "HIF-2α (Homo sapiens, UniProt Q99814)",
    "IC50": "0.1 to 1 µM"
  },
  {
    "compound": "O[C@H]1c2c(C(F)(F)F)nn(CCc3cnoc3)c2CC1(F)F [Example 75]",
    "measurement-target": "HIF-2α (Homo sapiens, UniProt Q99814)",
    "IC50": "< 0.1 µM"
  }
]

Q: Please state recorded IC50 (tested on HIF-2α (Homo sapiens, UniProt Q99814)) of O[C@H]1c2c(C(F)(F)F)nn(CCCOC(F)(F)F)c2CC[C@H]1F [Example 120]
Ans: < 0.1 µM

Q: Please state recorded IC50 (tested on HIF-2α (Homo sapiens, UniProt Q99814)) of O[C@H]1c2c(C(F)(F)F)nn([C@H]3CC[C@H](F)C[C@@H]3F)c2CC1(F)F (single isomer, unassigned) [97/98 DIAST-2]
Ans: < 0.1 µM

Q: Please state recorded IC50 (tested on HIF-2α (Homo sapiens, UniProt Q99814)) of O[C@H]1c2c(C(F)(F)F)nn(CCCC(F)(F)F)c2[C@H](F)[C@H]1F [Example 139]
Ans: < 0.1 µM

###

# measurement-target: HIF-2α (Homo sapiens)
# assay-name: HIF-2α Luciferase Reporter Assay (serum), HRE-luciferase 786-0 cells in 100% human serum
# Format: cell-based
# settings: ratio of IC50 in 100% serum to IC50 in serum free conditions; approximate
value-type: Serum Shift (approximate)

[
  {
    "compound": "O[C@H]1c2c(C(F)(F)F)nn([C@@H]3C[C@@H]4[C@H](C3)C4(F)F)c2CC1(F)F (single isomer, unassigned) [125/126 DIAST-2]",
    "result": 5
  },
  {
    "compound": "O[C@H]1c2c(C(F)(F)F)nn([C@@H]3CCC(F)(F)[C@@H](F)C3)c2CC1(F)F",
    "result": 11
  },
  {
    "compound": "O[C@H]1c2c(C(F)(F)F)nn(CCCOC(F)(F)F)c2CC[C@H]1F",
    "result": 4
  },
  {
    "compound": "O[C@H]1c2c(C(F)(F)F)nn(C[C@H](F)C3CC3)c2CCC1(F)F (single isomer, unassigned) [26/27 DIAST-2]",
    "result": 10
  },
  {
    "compound": "O[C@H]1c2c(C(F)(F)F)nn([C@@H]3C[C@@H](F)[C@@H](F)[C@@H](F)C3)c2[C@H](F)[C@H]1F",
    "result": 9
  }
]

A = C[C@H](C#N)CCn1nc(C(F)(F)F)c2c1C[C@@H](F)[C@H]2O
B = O[C@H]1c2c(C(F)(F)F)nn(CCc3ccoc3)c2CC1(F)F
C = O[C@H]1c2c(C(F)(F)F)nn(CCC3(C(F)(F)F)CC3)c2CCC1(F)F
D = O=S1(=O)CC(Cn2nc(C(F)(F)F)c3c2CC(F)(F)[C@H]3O)C1
Q: List these items ordered by Serum Shift (approximate), big to small. Write the labels out in the order the request specifies.
Ans: C, B, A, D

1 = O[C@H]1c2c(C(F)(F)F)nn(CCOC(F)(F)F)c2CCC1(F)F
2 = O[C@H]1c2c(C(F)(F)F)nn(CCC3CC3)c2CCC1(F)F
Q: Which of the two gives a bigger number for Serum Shift (approximate): 1 or 2 ? // respond with label for picked entry
Ans: 2

###

# measurement-target: HIF-2α (Homo sapiens)
# assay-name: HIF-2α Luciferase Reporter Assay (serum), HRE-luciferase 786-0 cells in 100% human serum
# Assay type: cell-based
# settings: ratio of IC50 in 100% serum to IC50 in serum free conditions; approximate
value-type: Serum Shift (approximate)

Example results:
[
  {
    "compound": "C[C@H](OC(F)F)[C@H]1C[C@H](n2nc(C(F)(F)F)c3c2CC(F)(F)[C@H]3O)C1 [Example 106]",
    "Serum Shift (approximate)": 1
  },
  {
    "compound": "O[C@H]1c2c(C(F)(F)F)nn(C3CC4(C3)CC(F)(F)C4)c2CC1(F)F [Example 66]",
    "Serum Shift (approximate)": 6
  }
]

A = O[C@H]1c2c(C(F)(F)F)nn(C3CCC(F)(F)CC3)c2[C@@H](F)[C@H]1F [Example 132]
B = C[C@H](C#N)CCn1nc(C(F)(F)F)c2c1CCC(F)(F)[C@H]2O [Example 100]
Q: Select the item whose Serum Shift (approximate) value is smaller, choosing between A and B . // respond with label for picked entry
Ans: B
(B: 4, A: 8)

P = O=S1(=O)CC(Cn2nc(C(F)(F)F)c3c2CCC(F)(F)[C@H]3O)C1 [Example 46]
Q = CC(F)(F)CCn1nc(C(F)(F)F)c2c1CCC(F)(F)[C@H]2O [Example 32]
Q: Select the item whose Serum Shift (approximate) value is smaller, choosing between P and Q . // respond with label for picked entry
Ans: P

###

# measurement-target: HIF-2α (Homo sapiens, UniProt Q99814)
# assay-name: HIF-2α Luciferase Reporter Assay (serum), HRE-luciferase 786-0 cells in 100% human serum
# Format: cell-based
# settings: 100% human serum, 786-0 reporter cells, overnight incubation; read-out: Serum Potency
pIC50: −log10 of the molar value.
Reported pIC50 is given for each of the following compounds.

[
  {
    "compound": "O[C@H]1c2c(C(F)(F)F)nn([C@@H]3CCC[C@H](OC(F)F)C3)c2CC1(F)F (racemic)",
    "pIC50": "< 6.00"
  },
  {
    "compound": "CO[C@H]1C[C@@H](n2nc(C(F)(F)F)c3c2CC(F)(F)[C@H]3O)CCC1(F)F (racemic)",
    "pIC50": "6.00 to 7.00"
  },
  {
    "compound": "O[C@H]1c2c(C(F)(F)F)nn(CCC3(F)COC3)c2CCC1(F)F",
    "pIC50": "< 6.00"
  },
  {
    "compound": "O[C@H]1c2c(C(F)(F)F)nn([C@H]3CCCC(F)(F)C3)c2[C@@H](F)[C@H]1F (single isomer, unassigned) [136/137 DIAST-1]",
    "pIC50": "< 6.00"
  },
  {
    "compound": "O[C@H]1c2c(C(F)(F)F)nn(CCCC(F)(F)F)c2CCC1(F)F",
    "pIC50": "6.00 to 7.00"
  }
]

Q: Name the recorded pIC50 for `O[C@H]1c2c(C(F)(F)F)nn(CCCOC(F)(F)F)c2CC[C@H]1F` .
Ans: 6.00 to 7.00

Q: Name the recorded pIC50 for `CC(C)(C#N)CCn1nc(C(F)(F)F)c2c1CCC(F)(F)[C@H]2O` .
Ans: < 6.00

Q: Name the recorded pIC50 for O[C@H]1c2c(C(F)(F)F)nn([C@@H]3CC[C@@H](F)C[C@H]3F)c2CC1(F)F (single isomer, unassigned) [97/98 DIAST-1] .
Ans: < 6.00
